Measured values drawn from patent US20260132197A1 for this set.

- measurement.target: T1, Human CD47-C33G (human, UniProt Q08722 19-135)
- T1 construct: also called CD47 mutein with C33G mutation
- T1 sequence (Q08722 19-135 C33G limits assumed): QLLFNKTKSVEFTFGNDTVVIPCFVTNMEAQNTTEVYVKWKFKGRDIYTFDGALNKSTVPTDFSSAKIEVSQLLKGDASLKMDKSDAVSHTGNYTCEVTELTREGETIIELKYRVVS
- protocol.summary: SPR, IgG captured, CD47 in flow; exp 3;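 also: biacore T200 SPR with antibodies taken from supernatants of transfected HEK293 cells, C33G mutein avoiding IgV homodimers for monovalent affinity, Kd derived from association and dissociation rate constants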
measurement.type: koff

Supply koff value. Item: chimeric antibody 108C10A6 (antibody, V domains shown, Chimeric antibody with mouse variable domains; captured through human Fc; also called VH / VL) VH: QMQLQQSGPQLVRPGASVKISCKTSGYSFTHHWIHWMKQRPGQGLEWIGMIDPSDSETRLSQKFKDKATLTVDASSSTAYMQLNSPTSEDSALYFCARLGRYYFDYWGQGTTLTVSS VL: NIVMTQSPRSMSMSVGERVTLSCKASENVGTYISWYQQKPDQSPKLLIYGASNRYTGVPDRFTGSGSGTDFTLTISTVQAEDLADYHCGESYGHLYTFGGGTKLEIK
0.00063 s⁻¹

Supply koff value. Item: 108VH5.M16 / 108VL1.M5 (antibody, human IgG4 S228P, kappa, V domains shown, Full-length IgG4 (S228P), kappa; also called VH5.M16 VL1.M5) VH: EVQLVQSGAEVKKPGASVKVSCKASGYTFTHHWMHWVRQAPGQGLEWMGMIDASDGETRYAQKFQGRVTMTRDTSTSTVYMELSSLRSEDTAVYYCARLGRYYFDYWGQGTLVTVSS VL: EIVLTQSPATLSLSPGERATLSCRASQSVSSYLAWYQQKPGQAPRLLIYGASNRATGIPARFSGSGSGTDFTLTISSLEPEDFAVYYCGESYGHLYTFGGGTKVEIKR
0.0041 s⁻¹

Supply koff value. Item: 108VH5.M17 / 108VL1.M5 (antibody, human IgG4 S228P, kappa, V domains shown, Full-length IgG4 (S228P), kappa; also called VH5.M17 VL1.M5) VH: EVQLVQSGAEVKKPGASVKVSCKASGYTFTHHWMHWVRQAPGQGLEWMGMIDASEGETRYAQKFQGRVTMTRDTSTSTVYMELSSLRSEDTAVYYCARLGRYYFDYWGQGTLVTVSS VL: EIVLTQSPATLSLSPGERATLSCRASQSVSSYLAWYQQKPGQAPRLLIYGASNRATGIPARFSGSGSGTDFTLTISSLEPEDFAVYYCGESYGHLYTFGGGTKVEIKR
0.084 s⁻¹

Supply koff value. Item: 108VH4.M4-VL1.M1 (antibody, V domains shown, also called original humanized 108C10A6 antibody) VH: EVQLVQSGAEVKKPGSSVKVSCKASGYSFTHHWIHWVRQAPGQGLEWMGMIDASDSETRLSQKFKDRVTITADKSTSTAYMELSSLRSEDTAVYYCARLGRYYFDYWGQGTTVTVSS VL: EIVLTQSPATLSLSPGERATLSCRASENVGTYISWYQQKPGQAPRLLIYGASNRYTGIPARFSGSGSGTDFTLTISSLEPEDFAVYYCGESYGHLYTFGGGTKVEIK
0.00084 s⁻¹
